Tested on: SNB-19 CNS
Assay: NCI tumour cell line growth inhibition, 48 h
QUANTITY_KIND: TGI

Would you please look over these solved cases?
compound="Nc1ccn(C2CC(F)C(CO)O2)c(=O)n1 (stereo not given)" result="> 100 µM"
compound="C#CC[C@@]12CC(=O)C[C@@H]1CCC1(C2)OCCO1 (tested in a mixture with another compound)" result="> 100 µM"
compound="C1=C(c2ccccc2)C(N2CCOCC2)Oc2ccccc21 (stereo not given)" result="> 100 µM"
compound=CCOC(=O)N1C/C(=C\c2ccccc2)C(=O)/C(=C/c2ccccc2)C1 result="20.2 µM"

From here, focus on the item given below.
Looking up `Cc1cc2c(c(C(N)=O)c1C)-c1cccc(F)c1C2=O` , I found its TGI recorded as > 100 µM
